System: HL60
test-summary: Tumor cell proliferation (MTS), HL60
Type: cell-based
condition-context: Homo sapiens, HL-60, HL60, 72 hours
observable: GI50

Record excerpt, results attached:
compound: Cc1[nH]c(/C=N/N=C2\C(=O)Nc3ccc(F)cc32)c(C)c1C(=O)NCCNc1ccc(C(=O)Nc2ccc(F)cc2N)cn1 [Example 14]
test-system: HL60
value-reported: > 60 µM

compound: Cc1[nH]c(/C=C2\C(=O)Nc3ccc(F)cc32)c(C)c1C(=O)NCCNc1ccc(C(=O)Nc2ccccc2N)cn1 [Example 3]
test-system: HL60
value-reported: 4.15 µM

compound: Cc1[nH]c(/C=C2\C(=O)Nc3ccc(F)cc32)c(C)c1C(=O)NCCCNc1ccc(C(=O)Nc2ccc(F)cc2N)cn1 [Example 16]
test-system: HL60
value-reported: > 60 µM

Name the recorded GI50 for Cc1[nH]c(/C=N/N=C2\C(=O)Nc3ccc(F)cc32)c(C)c1C(=O)NCCCCNc1ccc(C(=O)Nc2ccc(F)cc2N)cn1 [Example 20] . > 60 µM

Name the recorded GI50 for CNC(=O)c1cc(Oc2ccc(NC(=O)Nc3ccc(Cl)c(C(F)(F)F)c3)cc2)ccn1 [Sorafinib, reference compound] . 1.28 µM

Name the recorded GI50 for Cc1[nH]c(/C=N/N=C2\C(=O)Nc3ccc(F)cc32)c(C)c1C(=O)NCCCNc1ccc(C(=O)Nc2ccccc2N)cn1 [Example 7] . 7.91 µM

Name the recorded GI50 for Cc1[nH]c(/C=N/N=C2\C(=O)Nc3ccc(F)cc32)c(C)c1C(=O)NCCNc1ccc(C(=O)Nc2ccccc2N)cn1 [Example 4] . > 60 µM

Name the recorded GI50 for Cc1[nH]c(/C=C2\C(=O)Nc3ccc(F)cc32)c(C)c1C(=O)NCCCNc1ccc(C(=O)Nc2ccccc2N)cn1 [Example 6] . > 60 µM

Name the recorded GI50 for Cc1[nH]c(/C=N/N=C2\C(=O)Nc3ccc(F)cc32)c(C)c1C(=O)NCCCCNc1ccc(C(=O)Nc2ccccc2N)cn1 [Example 10] . 6.28 µM

Name the recorded GI50 for Cc1[nH]c(/C=C2\C(=O)Nc3ccc(F)cc32)c(C)c1C(=O)NCCNc1ccc(C(=O)Nc2ccc(F)cc2N)cn1 [Example 13] . > 60 µM

Name the recorded GI50 for Cc1[nH]c(/C=C2\C(=O)Nc3ccc(F)cc32)c(C)c1C(=O)NCCCCNc1ccc(C(=O)Nc2ccc(F)cc2N)cn1 [Example 19] . > 60 µM
